tested on: MCF-7; assay: In vitro anticancer activity, MTT assay, MCF-7; assay type: cell-based; conditions: MTT, 48 h exposure, compared with the standard cisplatin
measured-quantity: anticancer activity against MCF-7 cells (in words)

chemical-smiles	recorded-value
O=C(Nc1cccc(-c2nnc(C3CCCCC3)o2)c1)c1cc(F)cc(F)c1	good activity
Cc1ccc(NC(=O)Nc2cccc(-c3nnc(C4CCCCC4)o3)c2)cc1	significant activity
CC(C)(C)c1ccc(S(=O)(=O)Nc2cccc(-c3nnc(C4CCCCC4)o3)c2)cc1	good activity
O=C(Nc1ccc(F)cc1)Nc1cccc(-c2nnc(C3CCCCC3)o2)c1	good activity
O=C(Cc1ccccc1F)Nc1cccc(-c2nnc(C3CCCCC3)o2)c1	good activity
COc1cccc(NC(=O)Nc2cccc(-c3nnc(C4CCCCC4)o3)c2)c1	significant activity
